These entries and their values trace back to patent US20220259234A1.

Assay: Solubility in FaSSIF and FeSSIF
Assay type: physicochemical
Settings: fasted-state simulated intestinal fluid (FaSSIF), fassif, thermodynamic from solid, fasted-state simulated intestinal fluid pH 6.5, ambient temperature, read-out: FaSSIF (pH 6.5) solubility
Assign solubility at 2.5 h to each entry below.

The cases that follow already have their solubility at 2.5 h on record.
Cc1nc(F)ccc1[C@@H](c1cn(C23CC(C2)C3)nn1)N(C(=O)OCOC(=O)C1CCN(C)CC1)c1cc(C#N)c2ncc(C#N)c(NCC(C)(C)C)c2c1 [Example 8]    77 µg/mL
C[C@H](N)C(=O)OCOC(=O)N(c1cc(Cl)c2ncc(C#N)c(NCC(C)(C)C)c2c1)[C@H](c1cn(C23CC(C2)C3)nn1)c1cccc2c(=O)n(C)ccc12 [Example 2]    > 1880 µg/mL
CC(=O)OCOC(=O)N(c1cc(C#N)c2ncc(C#N)c(NCC(C)(C)C)c2c1)[C@H](c1cn(C23CC(C2)C3)nn1)c1ccc(F)nc1C [Example 7]    12 µg/mL
Cn1ccc2c([C@@H](c3cn(C45CC(C4)C5)nn3)N(C(=O)OCOP(=O)(O)O)c3cc(Cl)c4ncc(C#N)c(NCC(C)(C)C)c4c3)cccc2c1=O [Example 1]    > 1580 µg/mL
Cn1ccc2c([C@@H](c3cn(C45CC(C4)C5)nn3)N(C(=O)OCCCOP(=O)(O)O)c3cc(Cl)c4ncc(C#N)c(NCC(C)(C)C)c4c3)cccc2c1=O [Example 4]    4 µg/mL

Here is the next item to consider.
Lookup result for COC[C@@H](C)OC(=O)N(c1cc(C#N)c2ncc(C#N)c(NCC(C)(C)C)c2c1)[C@H](c1cn(C23CC(C2)C3)nn1)c1ccc(F)nc1C [Example 9] ; measured solubility at 2.5 h: 12 µg/mL
